Here, each record is paired with measured TGI data.
- Tested on: SW-620 colon
- ASSAY_PROCEDURE: NCI tumour cell line growth inhibition, 48 h
QUANTITY_NAME: TGI

INSERT INTO assay_data (compound, endpoint_value) VALUES
  ('COc1ccc(C2=CC(c3ccc4c(c3)OCO4)c3c(c4ccccc4oc3=O)O2)cc1OC (stereo unspecified)', '> 100 µM'),
  ('CCc1c2c([nH]c(=S)c1C#N)CCC2', '> 100 µM'),
  ('CC(=O)C(=C(c1ccccc1)c1ccccc1)c1ccccc1', '> 100 µM'),
  ('CN[C@@H](C)C(=O)N[C@H](C(=O)N1CCC[C@H]1C(=O)Nc1snnc1-c1ccccc1)C1CCCCC1', '> 100 µM'),
  ('Cc1c(C(N)=O)sc2c1C(=O)N(Cc1ccccc1)C1=NN=C(c3ccc(Cl)cc3)CN12', '18.4 µM'),
  ('COc1cc(C(=O)O[C@H](C(=O)NCCCCCNC(=O)[C@@H](OC(=O)c2cc(OC)cc3c(C)cccc23)[C@]2(C)CO2)[C@]2(C)CO2)c2cccc(C)c2c1', '> 100 µM'),
  ('O=C([O-])C[n+]1ccccc1', '> 100 µM'),
  ('Oc1c(C(Nc2cccc3cccnc23)c2ccccc2)ccc2cccnc12 (stereo unspecified)', '> 100 µM'),
  ('CCc1cc(C(=O)OC)cn1C(=N)c1ccc(Cl)cc1', '> 100 µM'),
  ('C[C@H]1[C@H](C)CC[C@]2(CO)CC[C@]3(C)C(=CC[C@@H]4[C@@]5(C)CCCNC(C)(C)[C@@H]5CC[C@]43C)[C@H]12', '3.54 µM'),
  ('O=[N+]([O-])c1cc(C(F)(F)F)cc([N+](=O)[O-])c1CCl', '1.63 µM'),
  ('Cc1cc(=O)[nH]c(-n2[nH]c(C)c(CCO)c2=O)n1', '> 100 µM'),
  ('COc1ccc(-c2cc(=O)[nH]c3c(OC)c4ccccc4c(OC)c23)cc1', '> 100 µM'),
  ('COc1cc2c(cc1C)NC(=O)/C2=C/c1ccccn1', '> 100 µM'),
  ('O=C1/C(=C/c2cccc(F)c2)CCCc2ccccc21', '30.5 µM'),
  ('O=C(Nc1ccc(Cl)cc1)c1cc2cc(N=Nc3ccccc3Cl)ccc2oc1=O', '> 100 µM'),
  ('Oc1ccccc1/C=C/c1csnn1', '> 100 µM'),
  ('COc1cc(O)c2c(=O)cc(-c3ccc(O)cc3O)oc2c1CC=C(C)C', '> 100 µM'),
  ('O=C(CCCCCCCCC(=O)N/N=C\c1ccccc1O)N/N=C\c1ccccc1O', '24.1 µM'),
  ('COc1cc([C@@H]2OC[C@@H]3C(c4cc(OC)c5c(c4)OCO5)OC[C@@H]32)cc(OC)c1OC (stereo partly specified)', '> 100 µM'),
  ('O=C1/C(=C\c2ccc(O)cc2)CCC/C1=C/c1ccc(Cl)c(Cl)c1', '12 µM');

* * *

- Tested on: DU-145 prostate
- ASSAY_PROCEDURE: NCI tumour cell line growth inhibition, 48 h
The following compounds are shown together with reported TGI values.
QUANTITY_NAME: TGI

INSERT INTO measurements (compound, endpoint_value) VALUES
  ('Cc1ccc(S(=O)(=O)N/N=C/c2c(O)ccc3ccccc23)cc1', '> 100 µM'),
  ('Cc1ccc(Nc2n[nH]c(=S)s2)cc1C', '> 100 µM'),
  ('CCN(CC)CCCCNc1c2ccccc2[n+](C)c2c1[nH]c1ccccc12', '11.5 µM'),
  ('CC1CCC(NC(=O)N(CCCl)N=O)CC1 (stereo unspecified)', '227 µM'),
  ('O=C1NC2ON=C(c3ccccc3)C2C2ON=C(c3ccccc3)N12 (stereo unspecified)', '> 100 µM'),
  ('CCCCCCCCCCCCCCCCCCNC(=O)C(N)Cc1ccc(OCc2ccccc2)cn1 (stereo unspecified)', '43.4 µM'),
  ('COc1ccc(/C(COc2ccc3c(=O)cc(-c4ccccc4)oc3c2)=N\O)cc1', '> 47.4 µM'),
  ('COC(=O)c1nc(-c2ccccc2)oc1S(=O)(=O)Cc1ccccc1', '10.9 µM'),
  ('COc1cc(OC(=O)c2ccccc2)cc2c1C(=O)C=CC2=O', '34.4 µM'),
  ('C(=C\c1cccs1)/c1cccc(/C=C/c2cccs2)n1', '> 100 µM'),
  ('CC(=O)OCC1OC(n2cnc(C(N)=S)c2N)C(OC(C)=O)C1OC(C)=O (stereo unspecified)', '> 100 µM'),
  ('C=CCOc1cccc(C2(O)c3ccccc3C3=NCCCN32)c1 (stereo unspecified)', '> 100 µM'),
  ('O=C(CC(=O)N(C(=O)/C=C\c1ccccc1)c1ccc(Cl)cc1)N1N=C(c2ccccc2)C(N=Nc2cccc([N+](=O)[O-])c2)C1=O (stereo unspecified)', '91.8 µM'),
  ('CCOC(=O)c1cnc2oc3ccc(O)cc3c2c1C', '> 100 µM'),
  ('CC/C=C1/C(=O)C=C[C@@H]1C/C=C\CCCC(=O)OC', '16.4 µM'),
  ('CCOC(=O)C1=C(C)OC2(O)C=CC(O)=C3C(=O)N(c4ccccc4)C(=O)C312 (stereo unspecified)', '> 100 µM'),
  ('Cc1ccc2c(c1)[nH]c(=S)n2/C=C1\C(=O)Oc2ccccc2C1=O', '> 100 µM'),
  ('O=C1c2ccccc2C(O)(O)C1(O)C1(O)C(=O)c2ccccc2C1(O)O (stereo unspecified)', '> 100 µM'),
  ('N#Cc1c(N)nc(-c2ccc(Cl)cc2)c2c1-c1ccccc1S(=O)(=O)CC2', '> 100 µM'),
  ('CN(C)CCN1C(=O)c2ccccc2N(C)c2ccccc21', '> 100 µM'),
  ('COc1cc(/C=C/C(=O)c2cccc(Nc3nc(Nc4ccccc4)nc(Nc4ccccc4)n3)c2)cc(OC)c1OC', '> 100 µM');

* * *

- System: ACHN renal
- ASSAY_PROCEDURE: NCI tumour cell line growth inhibition, 48 h
QUANTITY_NAME: TGI

INSERT INTO measurements (compound, tested_system, endpoint_value) VALUES
  ('CCc1c2c([nH]c(=S)c1C#N)CCC2', 'ACHN renal', '> 100 µM'),
  ('O=C(O)CNC(=O)c1ccc(-c2ccccc2)cc1', 'ACHN renal', '> 100 µM'),
  ('COCCOC(=O)c1c(C)n([O-])c2cc(Cl)c(Cl)cc2[n+]1=O', 'ACHN renal', '29.3 µM'),
  ('CCC(C)(CC(C)(C)C(=O)NCC(=O)NC(Cc1ccccc1)C(=O)NC(Cc1ccccc1)C(=O)NCC(=O)NC1CC(OC2CC(O)(C(=O)CO)Cc3c(O)c4c(c(O)c32)C(=O)c2c(OC)cccc2C4=O)OC(C)C1O)C(=O)NCC(C)O (configuration not stated)', 'ACHN renal', '> 150 µg/mL'),
  ('Cc1nn2c(/C=C3\C(=O)Nc4ccc(Cl)cc43)c(C)nc2s1', 'ACHN renal', '> 100 µM'),
  ('Cc1cc2ccccc2n2c1nc1ccccc12', 'ACHN renal', '> 100 µM'),
  ('CN(C)CCCSc1nc2ccccc2[nH]1', 'ACHN renal', '> 100 µM'),
  ('CP1(=O)CCCCC1', 'ACHN renal', '> 100 µM'),
  ('O=C(c1cccs1)N(C(=S)N1CCN(c2ccccn2)CC1)c1ccccc1', 'ACHN renal', '> 100 µM'),
  ('COC(=O)/C=C(/C)n1nc2ccccc2n1', 'ACHN renal', '> 100 µM'),
  ('O=c1[nH]c2cc([N+](=O)[O-])ccc2nc1/C(=N/Nc1ccccc1)C(O)c1ccccc1Cl (configuration not stated)', 'ACHN renal', '> 100 µM'),
  ('CC/C=C1/C(=O)C=C[C@@H]1C/C=C\CCCC(=O)OC', 'ACHN renal', '4.57 µM');

* * *

- Test system: ACHN renal
- ASSAY_PROCEDURE: NCI tumour cell line growth inhibition, 48 h
TGI values for the compounds below.
QUANTITY_NAME: TGI

INSERT INTO results (compound, endpoint_value) VALUES
  ('CNC1=C(C)C(=O)C(=O)C([C@H](C)CCC=C(C)C)=C1O', '39.4 µM'),
  ('CCOC(=O)P(=O)(O)c1ccc(N(C)Cc2ccccc2)cc1', '> 100 µM'),
  ('C1=NCCN2CCN(CCN=Cc3ccc(cc3)OCc3cccc(n3)COc3ccc1cc3)CC2', '> 50 µM'),
  ('COc1ccc2c(c1)c(=O)oc1cc(OC/C(C)=N\O)ccc12', '> 100 µM'),
  ('O=S1(=O)N=C(SCc2ccccc2)N(c2ccccc2)c2ccncc21', '> 100 µM'),
  ('CN(C)Nc1cc(=O)[nH]c(=O)[nH]1', '> 100 µM'),
  ('COc1cc2c(c(O)c1OC)-c1c(cc(OC)c(OC)c1OC)CC(C)C(C)C2 (stereo not given)', '> 100 µM'),
  ('Cc1ccc(Nc2n[nH]c(=S)s2)cc1C', '> 100 µM'),
  ('C=CCN1C(=O)C=C(c2ccccc2)n2ncc3cccc1c32', '> 100 µM'),
  ('CCCCCCCCCCCCCCCCCCNc1ccn(C2OC(COP(=O)(O)OCC3OC(n4cc(F)c(=O)[nH]c4=O)CC3O)C(O)C2O)c(=O)n1 (stereo not given)', '> 100 µM');

Sourced from PubChem BioAssay (NCI)
